From: the supplement of paper PMC7125110

B1: glmS ribozyme (parent)
chain: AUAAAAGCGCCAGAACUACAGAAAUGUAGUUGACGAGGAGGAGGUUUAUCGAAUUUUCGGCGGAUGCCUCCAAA

# Variants of: B1
# Test Details: self-cleavage kobs at 40 uM GlcN6P; higher = faster cleavage; RNA array
# Details: with glucosamine-6-phosphate
Variants at the floor of the assay were thinned out.
Please respond with reported self-cleavage kobs at 40 uM GlcN6P for every item in the list.
Field format: number, assumed s⁻¹, no unit text.

Entry A15U U31G C71U — recorded self-cleavage kobs at 40 uM GlcN6P = 6.97e-05

self-cleavage kobs at 40 uM GlcN6P for A39C C67G is 2.13e-05
